Data provenance: ChEMBL document CHEMBL1126796

experiment: Volume of distribution of central compartment (= dose+ plasma concentration at time zero) after intravenous dose of 3.87 mg/kg; assay type: ADME, organism-based; parameters: dose 3.87 mg/kg, route intravenous; details: read-out: VI
recorded_metric: Vd
Put down the number, then write its unit next to it.

For the molecule CCc1nc2c(C)cc(C)nc2n1Cc1ccc(-c2ccccc2-c2nnn[nH]2)cc1 , give its measured Vd value.
0.41 L/kg

###

assay: Volume of distribution of central compartment (= dose+ plasma concentration at time zero) after intravenous dose of 0.3 mg/kg; type: ADME, organism-based; set-up: dose 0.3 mg/kg, route intravenous; details: read-out: VI
recorded_metric: Vd (L/kg)
Write the value in L/kg as a bare number.

For the compound CCCN(Cc1ccc(-c2ccccc2-c2nnn[nH]2)cc1)c1ncccc1C(=O)O , give its measured Vd value.
0.04

###

assay: Apparent bioavailability after oral dose of 3.87 mg/kg; format: ADME, organism-based; details: eutheria, in vivo
recorded_metric: bioavailability

For the compound CCc1nc2c(C)cc(C)nc2n1Cc1ccc(-c2ccccc2-c2nnn[nH]2)cc1 , give its measured bioavailability value.
66.7%

###

Tmax: recorded values
assay: Tmax value after oral dose of 3.87 mg/kg; assay type: ADME, organism-based; parameters: dose 3.87 mg/kg, route oral; details: in vivo
Write the value in h as a bare number.

# given_smiles, value_units, Tmax
measured = [
    ("CCc1nc2c(C)cc(C)nc2n1Cc1ccc(-c2ccccc2-c2nnn[nH]2)cc1", "h", 2),
]

We next turn to a different compound, shown below.
For the compound CCCCN(Cc1ccc(-c2ccccc2-c2nn[nH]n2)cc1)c1ncncc1C(=O)O.Cl , give its measured Tmax value.
1.3

###

assay: Volume of distribution of the terminal phase (= CLp+ plasma elimination rate constant) after intravenous dose of 3 mg/kg; assay type: ADME, organism-based; design: dose 3 mg/kg, route intravenous; conditions: read-out: Vbeta
recorded_metric: Vd (L/kg)
Write the value in L/kg as a bare number.

For the molecule CCCN(Cc1ccc(-c2ccccc2-c2nnn[nH]2)cc1)c1ncccc1C(=O)O , give its measured Vd value.
0.12

###

experiment: Volume of distribution of the terminal phase (= CLp+ plasma elimination rate constant) after intravenous dose of 3.87 mg/kg; format: ADME, organism-based; design: dose 3.87 mg/kg, route intravenous; conditions: read-out: Vbeta
recorded_metric: Vd (L/kg)
Write the value in L/kg as a bare number.

For the compound CCc1nc2c(C)cc(C)nc2n1Cc1ccc(-c2ccccc2-c2nnn[nH]2)cc1 [L-158809] , give its measured Vd value.
1.78

###

experiment: Volume of distribution of central compartment (= dose+ plasma concentration at time zero) after intravenous dose of 1 mg/kg; assay type: ADME, organism-based; set-up: dose 1 mg/kg, route intravenous; conditions: read-out: VI
recorded_metric: Vd (L/kg)
Write the value in L/kg as a bare number.

For the molecule CCCN(Cc1ccc(-c2ccccc2-c2nnn[nH]2)cc1)c1ncccc1C(=O)O , give its measured Vd value.
0.04

###

biological target: Type-1 angiotensin II receptor A (Rattus norvegicus); assay: Binding affinity against angiotensin II receptor from rat liver
Sequence (P25095 whole entry): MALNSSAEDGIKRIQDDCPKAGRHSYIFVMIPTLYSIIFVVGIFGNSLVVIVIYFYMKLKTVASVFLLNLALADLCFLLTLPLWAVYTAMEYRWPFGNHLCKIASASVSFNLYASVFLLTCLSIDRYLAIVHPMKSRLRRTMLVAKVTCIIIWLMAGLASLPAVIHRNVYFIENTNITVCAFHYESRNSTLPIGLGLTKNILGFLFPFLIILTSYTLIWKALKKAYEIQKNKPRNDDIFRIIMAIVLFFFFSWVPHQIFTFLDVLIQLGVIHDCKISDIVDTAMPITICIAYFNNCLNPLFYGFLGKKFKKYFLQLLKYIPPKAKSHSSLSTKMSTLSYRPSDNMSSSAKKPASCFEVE
One threshold, 3 nM, splits the recorded Ki values: lower ones are 1, equal or higher ones are 0.

Hello, is Ki of the following compound strictly smaller than 3 nM? CCCN(Cc1ccc(-c2ccccc2-c2nn[nH]n2)cc1)c1nc(C)ncc1C(=O)O
1

Hello, is Ki of the following compound strictly smaller than 3 nM? CCc1ncc(C(=O)O)c(NCc2ccc(-c3ccccc3-c3nn[nH]n3)cc2)n1.Cl
0

Hello, is Ki of the following compound strictly smaller than 3 nM? CCCCN(Cc1ccc(-c2ccccc2-c2nn[nH]n2)cc1)c1ncncc1C(=O)O.Cl
1

Hello, is Ki of the following compound strictly smaller than 3 nM? CCCCN(Cc1ccc(-c2ccccc2-c2nn[nH]n2)cc1)c1nc(C)ncc1C(=O)O.Cl
0

Hello, is Ki of the following compound strictly smaller than 3 nM? CCOC(=O)c1cnc(CC)nc1NCc1ccc(-c2ccccc2-c2nn[nH]n2)cc1
0

Hello, is Ki of the following compound strictly smaller than 3 nM? CCCN(Cc1ccc(-c2ccccc2-c2nnn[nH]2)cc1)c1ncccc1C(=O)O
1
